Reference source for all entries: patent US20210040184A1

Target: Clade C DU172.17 gp120 protein (HIV-1 Clade C, DU172.17)
Assay: BLI (Octet), IgG on anti-hIgG Fc sensor, gp120 analyte, 1:1 fit
pKd listing for selected binders.
Keep it numeric: pKd is minus log10 of the concentration in mol/L.

Answered examples (2):
{"BINDER": "Germ6 (antibody, V domains shown) VH: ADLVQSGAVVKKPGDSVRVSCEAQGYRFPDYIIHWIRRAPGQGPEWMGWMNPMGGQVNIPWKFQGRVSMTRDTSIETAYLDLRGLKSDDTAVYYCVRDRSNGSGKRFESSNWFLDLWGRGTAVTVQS VL: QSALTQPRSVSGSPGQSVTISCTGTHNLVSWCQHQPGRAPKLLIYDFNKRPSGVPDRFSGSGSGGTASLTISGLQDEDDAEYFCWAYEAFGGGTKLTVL", "pKd": 7.71}
{"BINDER": "Germ18 (antibody, V domains shown) VH: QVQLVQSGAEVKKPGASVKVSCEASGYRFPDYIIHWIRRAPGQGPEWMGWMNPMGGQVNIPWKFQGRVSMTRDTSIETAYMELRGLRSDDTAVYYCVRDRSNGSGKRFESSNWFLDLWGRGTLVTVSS VL: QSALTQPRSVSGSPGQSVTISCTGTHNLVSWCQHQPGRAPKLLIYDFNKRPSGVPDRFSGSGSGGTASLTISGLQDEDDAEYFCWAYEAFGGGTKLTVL", "pKd": 7.67}

Query :: Record request: pKd value, item CysCA (antibody, V domains shown) VH: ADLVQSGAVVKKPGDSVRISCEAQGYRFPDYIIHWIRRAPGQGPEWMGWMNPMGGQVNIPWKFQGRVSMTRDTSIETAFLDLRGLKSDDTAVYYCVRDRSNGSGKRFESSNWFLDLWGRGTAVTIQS VL: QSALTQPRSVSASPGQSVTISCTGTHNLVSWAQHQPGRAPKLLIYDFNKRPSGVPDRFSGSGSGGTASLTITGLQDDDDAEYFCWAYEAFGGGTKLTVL
Result :: 7.71
